Assay: Drug level in LPS-stimulated OFI mouse plasma at 100 mg/kg, po after 2 hrs by LC-MS/MS analysis
Assay type: ADME, organism-based
Design: dose 100 mg/kg, route oral
quantity.kind: concentration at 2 h (µM)

>>> test_value("COc1ccc(-c2cc3c(ccc4c5c([nH]c43)CCC5=O)cn2)cc1F")
13

###

Molecular target: MAP kinase-activated protein kinase 2 (Homo sapiens)
Sequence (P49137 whole entry): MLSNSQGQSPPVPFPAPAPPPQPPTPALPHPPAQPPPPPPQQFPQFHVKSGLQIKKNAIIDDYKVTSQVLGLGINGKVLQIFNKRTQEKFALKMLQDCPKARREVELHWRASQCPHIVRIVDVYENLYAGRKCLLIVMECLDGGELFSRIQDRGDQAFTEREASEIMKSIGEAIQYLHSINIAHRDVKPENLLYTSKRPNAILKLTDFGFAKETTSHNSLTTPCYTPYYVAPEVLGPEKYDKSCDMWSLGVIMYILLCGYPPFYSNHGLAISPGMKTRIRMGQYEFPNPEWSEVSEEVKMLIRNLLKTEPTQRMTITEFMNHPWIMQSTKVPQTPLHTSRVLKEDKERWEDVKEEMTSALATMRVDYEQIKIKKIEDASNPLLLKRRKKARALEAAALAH
Assay: Inhibition of human MK2 using hsp27 peptide biotinyl-AYSRALSRQLSSGVSEIRCOOH as substrate after 45 mins by FRET assay
quantity.kind: IC50 (nM)

>>> test_value("CNCc1[nH]c2c(ccc3cnc(/C=C/c4ccccc4)cc32)c1C(=O)O")
60
>>> test_value("O=C1NCCCc2[nH]c3c(ccc4cnc(/C=C/c5cccc(CCN6CCOCC6)c5)cc43)c21")
172
>>> test_value("O=C1NCc2[nH]c3c(ccc4cnc(/C=C/c5ccc(CN6CCOCC6)cc5)cc43)c21")
8
>>> test_value("COCCOc1cncc(-c2cc3c(ccc4c5c([nH]c43)CCNC5=O)cn2)c1")
12
>>> test_value("COc1ccc(-c2cc3c(ccc4c5c([nH]c43)CCC5=O)cn2)cc1F")
160
>>> test_value("O=C1NCc2[nH]c3c(ccc4cnc(/C=C/c5cccc(CCN6CCOCC6)c5)cc43)c21")
10
>>> test_value("O=C1NCc2[nH]c3c(ccc4cnc(Nc5cccc(F)c5)cc43)c21")
73
>>> test_value("O=C1NCCCc2[nH]c3c(ccc4cnc(/C=C/c5ccc(CN6CCOCC6)cc5)cc43)c21")
253
>>> test_value("O=C1NCc2[nH]c3c(ccc4cnc(-c5cccc(OCCN6CCOCC6)c5)cc43)c21")
32
>>> test_value("O=C1NCCCc2[nH]c3c(ccc4cnc(-c5cncc(OCCN6CCOCC6)c5)cc43)c21")
80
>>> test_value("O=C1NOCc2[nH]c3c(ccc4cnc(/C=C/c5ccccc5)cc43)c21")
25
>>> test_value("COCCOc1cncc(-c2cc3c(ccc4c5c([nH]c43)CCCNC5=O)cn2)c1")
96
>>> test_value("O=C1NCc2[nH]c3c(ccc4cnc(-c5ccccc5F)cc43)c21")
85
>>> test_value("O=C1NCCc2[nH]c3c(ccc4cnc(/C=C/c5ccc(CN6CCOCC6)cc5)cc43)c21")
1
>>> test_value("O=C1NCCc2[nH]c3c(ccc4cnc(-c5cncc(OCCN6CCOCC6)c5)cc43)c21")
10
>>> test_value("COc1ccc(-c2cc3c(ccc4c5c([nH]c43)CNC5=O)cn2)cc1")
27
>>> test_value("O=C1NCCCc2[nH]c3c(ccc4cnc(-c5ccccc5OCCN5CCOCC5)cc43)c21")
167
>>> test_value("COc1ccc(-c2cc3c(ccc4c5c([nH]c43)CCCNC5=O)cn2)cc1")
72
>>> test_value("COc1ccc(-c2cc3c(ccc4c5c([nH]c43)CCNC5=O)cn2)cc1F")
15
>>> test_value("COc1ccc(-c2cc3c(ccc4c5c([nH]c43)CN(C)NC5=O)cn2)cc1")
23

###

Target: MAP kinase-activated protein kinase 2 (Homo sapiens)
Assay: Inhibition of MK2 in human THP-1 cells assessed as inhibition of anisomycin stimulated ser78-hsp27 phosphorylation after 10 mins by FACS analysis
Assay type: cell-based
quantity.kind: IC50 (µM)

>>> test_value("COc1ccc(-c2cc3c(ccc4c5c([nH]c43)CCC5=O)cn2)cc1F")
5.8
>>> test_value("COc1ccc(-c2cc3c(ccc4c5c([nH]c43)CN(C)NC5=O)cn2)cc1")
0.875
>>> test_value("COCCOc1cncc(-c2cc3c(ccc4c5c([nH]c43)CCCNC5=O)cn2)c1")
8.3
>>> test_value("COc1ccc(-c2cc3c(ccc4c5c([nH]c43)CCNC5=O)cn2)cc1F")
0.5
>>> test_value("COCCOc1cncc(-c2cc3c(ccc4c5c([nH]c43)CNC5=O)cn2)c1")
1.68
>>> test_value("O=C1NCc2[nH]c3c(ccc4cnc(-c5cccc(OCCN6CCOCC6)c5)cc43)c21")
1.28
>>> test_value("O=C1NCc2[nH]c3c(ccc4cnc(-c5ccccc5F)cc43)c21")
5.08
>>> test_value("O=C1NCc2[nH]c3c(ccc4cnc(-c5cncc(OCCN6CCOCC6)c5)cc43)c21")
9.33
>>> test_value("O=C1NCCc2[nH]c3c(ccc4cnc(-c5cncc(OCCN6CCOCC6)c5)cc43)c21")
2.5
>>> test_value("O=C1NCCc2[nH]c3c(ccc4cnc(-c5cccc(OCCN6CCOCC6)c5)cc43)c21")
1.3
>>> test_value("COCCOc1cncc(-c2cc3c(ccc4c5c([nH]c43)CCNC5=O)cn2)c1")
0.7
